# Tested on: HOP-92 NSCLC
# TEST DESCRIPTION: NCI tumour cell line growth inhibition, 48 h
MEASURED METRIC: TGI (µM)
Numbers only, in µM.

COc1ccc2nc(NC(=O)c3cccnc3Nc3cc(OC)c(OC)c(OC)c3)sc2c1 ... 9.5

Batch lookup, TGI per entry.
1. Cc1ccc2c(=O)cc(-c3sc4ccccc4c3C)[nH]c2n1
2. COc1cc(C(=O)Oc2c(C#N)sc3c2c(=O)n(-c2ccccc2)c(=S)n3-c2ccccc2)cc(OC)c1OC

1. 30.6
2. 64.4

Batch lookup, TGI per entry.
1. CO[C@H]1CC(c2ccc[nH]2)=N[C@]12O[C@@H](C)C[C@@H]1CCCCCCCc3ccc([nH]3)[C@H]12
2. CCCCCC(O)C1C(=O)OC(C)C(O)/C=C/C=C/C=C/C=C/C=C(\C)C(O)C(O)C(O)CC(O)CC(O)CC(O)CC(O)CC1O (stereo not given)
3. O=C1CC(c2ccc(Cl)cc2)Oc2ccccc21 (stereo not given)

1. 4.81
2. 3.21
3. 56.5
